System: KM12 (Colon cancer)
Test: NCI-60 single-dose anticancer screen
Assay type: cell-based, human
Conditions: 10 µM single dose

molecule: COc1cc(C=CC(=O)c2ccc(N3CCNCC3)cc2)ccc1F [Ve]
target or test system: KM12 (Colon cancer)
unit of measure: %
cell growth promotion: 60.47

molecule: O=C(C=Cc1cccc(F)c1)c1ccc(N2CCNCC2)cc1 [Vd]
target or test system: KM12 (Colon cancer)
unit of measure: %
cell growth promotion: 77.75

molecule: Fc1cnccc1C1CC(c2ccc(N3CCNCC3)cc2)=NN1 (stereo not drawn) [VIc]
target or test system: KM12 (Colon cancer)
unit of measure: %
cell growth promotion: 96.23
